Tgt: Tyrosine-protein phosphatase non-receptor type 1 (Homo sapiens, UniProt P18031)
Sequence (P18031 whole entry, the tested form may be a part): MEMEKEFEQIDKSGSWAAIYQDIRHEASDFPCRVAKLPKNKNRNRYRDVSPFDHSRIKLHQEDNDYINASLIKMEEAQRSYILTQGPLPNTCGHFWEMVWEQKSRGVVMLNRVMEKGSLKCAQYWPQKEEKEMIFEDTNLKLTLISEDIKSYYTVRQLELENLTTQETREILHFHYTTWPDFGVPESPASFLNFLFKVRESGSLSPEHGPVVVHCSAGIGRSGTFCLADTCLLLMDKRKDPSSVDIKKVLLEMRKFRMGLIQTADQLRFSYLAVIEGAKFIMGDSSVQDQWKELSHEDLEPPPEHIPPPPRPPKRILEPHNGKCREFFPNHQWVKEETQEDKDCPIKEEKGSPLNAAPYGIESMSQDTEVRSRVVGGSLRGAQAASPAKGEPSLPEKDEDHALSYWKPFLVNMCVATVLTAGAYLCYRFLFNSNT
Test Summary: Inhibition of N-terminal GST tagged recombinant human PTP1B catalytic domain (1 to 321 residues) expressed in Escherichia coli using pNPP as substrate preincubated for 10 mins followed by substrate addition and measured every 5 mins for 30 mins

[
  {
    "Smiles Data": "CC1=C(CO)[C@@H](CCO)[C@H](O)C1",
    "Tgt": "Tyrosine-protein phosphatase non-receptor type 1 (Homo sapiens, UniProt P18031)",
    "IC50": "> 80 µM"
  },
  {
    "Smiles Data": "COC(=O)[C@H](CO)[C@@H]1C(CO)=C(C)C[C@H]1O",
    "Tgt": "Tyrosine-protein phosphatase non-receptor type 1 (Homo sapiens, UniProt P18031)",
    "IC50": "> 80 µM"
  },
  {
    "Smiles Data": "CC1=C2C(=O)OCC[C@H]2[C@H](O)C1",
    "Tgt": "Tyrosine-protein phosphatase non-receptor type 1 (Homo sapiens, UniProt P18031)",
    "IC50": "> 80 µM"
  },
  {
    "Smiles Data": "COC(=O)C1=CO[C@@]2(C)C[C@@H](O)[C@H]1[C@@H]2CO",
    "Tgt": "Tyrosine-protein phosphatase non-receptor type 1 (Homo sapiens, UniProt P18031)",
    "IC50": "22.2 µM"
  },
  {
    "Smiles Data": "COC(=O)[C@@H](CO)[C@@H]1C(CO)=C(C)C[C@H]1O",
    "Tgt": "Tyrosine-protein phosphatase non-receptor type 1 (Homo sapiens, UniProt P18031)",
    "IC50": "> 80 µM"
  },
  {
    "Smiles Data": "CC1=C2COC(=O)[C@@H](CO)[C@H]2[C@H](O)C1",
    "Tgt": "Tyrosine-protein phosphatase non-receptor type 1 (Homo sapiens, UniProt P18031)",
    "IC50": "8.9 µM"
  },
  {
    "Smiles Data": "CC1=C2COC(=O)[C@H](CO)[C@H]2[C@H](O)C1",
    "Tgt": "Tyrosine-protein phosphatase non-receptor type 1 (Homo sapiens, UniProt P18031)",
    "IC50": "9.8 µM"
  },
  {
    "Smiles Data": "CC1=C[C@@H](O)[C@@H]2[C@@H](CO)C(=O)O[C@]12CO",
    "Tgt": "Tyrosine-protein phosphatase non-receptor type 1 (Homo sapiens, UniProt P18031)",
    "IC50": "43.6 µM"
  },
  {
    "Smiles Data": "COC(=O)C1=C(C)C[C@@H](O)[C@@H]1CCO",
    "Tgt": "Tyrosine-protein phosphatase non-receptor type 1 (Homo sapiens, UniProt P18031)",
    "IC50": "> 80 µM"
  },
  {
    "Smiles Data": "COC(=O)[C@H]1COC(=O)C2=C(C)C[C@@H](O)[C@@H]21",
    "Tgt": "Tyrosine-protein phosphatase non-receptor type 1 (Homo sapiens, UniProt P18031)",
    "IC50": "> 80 µM"
  },
  {
    "Smiles Data": "COC(=O)C1=C(C)C[C@@H](O)[C@@H]1[C@H](CO)C(=O)OC",
    "Tgt": "Tyrosine-protein phosphatase non-receptor type 1 (Homo sapiens, UniProt P18031)",
    "IC50": "> 80 µM"
  }
]

Origin of the recorded values: ChEMBL document CHEMBL4414619
